Target: MAO-A (Homo sapiens, UniProt P21397)
Sequence (P21397 whole entry): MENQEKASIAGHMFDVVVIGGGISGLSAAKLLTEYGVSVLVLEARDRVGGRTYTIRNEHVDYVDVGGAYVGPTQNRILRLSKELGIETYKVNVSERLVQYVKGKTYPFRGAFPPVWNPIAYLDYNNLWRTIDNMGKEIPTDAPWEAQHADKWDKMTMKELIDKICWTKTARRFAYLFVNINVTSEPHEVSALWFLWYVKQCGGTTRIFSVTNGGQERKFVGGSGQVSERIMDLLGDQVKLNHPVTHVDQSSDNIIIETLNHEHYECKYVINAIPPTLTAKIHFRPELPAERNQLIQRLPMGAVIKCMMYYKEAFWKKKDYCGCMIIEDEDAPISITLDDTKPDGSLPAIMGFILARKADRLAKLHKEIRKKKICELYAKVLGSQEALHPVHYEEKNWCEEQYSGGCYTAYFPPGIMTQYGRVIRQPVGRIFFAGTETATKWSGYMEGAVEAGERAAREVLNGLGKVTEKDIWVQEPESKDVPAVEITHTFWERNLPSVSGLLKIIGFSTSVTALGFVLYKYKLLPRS
Experiment: Inhibition of recombinant MAO-A (unknown origin) at 1 uM incubated for 15 mins followed by luciferin substrate addition and measured after 60 mins by Promega-Glo analysis
Conditions: probe luciferin substrate, time 75 min
RECORDED METRIC: inhibition at 1.25 h, 1 µM

So the reported inhibition at 1.25 h, 1 µM for `C#CCSc1nc(Sc2nnnn2-c2ccccc2)c2nnn(Cc3ccccc3Cl)c2n1` , on MAO-A (Homo sapiens, UniProt P21397), turned out to be < 10%

---

Target: Lysine-specific histone demethylase 1A (Homo sapiens, UniProt O60341)
Test: Inhibition of LSD1 (unknown origin) by fluorescence analysis
RECORDED METRIC: pIC50
FYI, pIC50 means -log10 of a concentration in mol per litre.

// field: pIC50; key: COc1c(O)cc2oc3cc(O)c(CC=C(C)C)c(O)c3c(=O)c2c1CC=C(C)C [MANGOSTIN] ; value = 5.55

---

Molecular target: Lysine-specific histone demethylase 1A (Homo sapiens, UniProt O60341)
Test: Inhibition of LSD1 (unknown origin) expressed in Escherichia coli BL21 (DE) using H3K4me2 peptide as substrate incubated for 30 mins by Amplex Red reagent based fluorescence analysis
RECORDED METRIC: pIC50
In plain terms, pIC50 is the concentration in mol/L turned into minus its base-10 logarithm.

pIC50 for `COc1cc2c(cc1OC)-c1cc3ccc4c(c3c[n+]1CC2)OCO4` is 6.85

---

Molecular target: Lysine-specific histone demethylase 1A (Homo sapiens)
Assay: Inhibition of LSD1 (unknown origin)
RECORDED METRIC: IC50 (nM)
Numbers only; they are read as nM.

Please fill in: IC50 reported for COc1cc(CNC(=O)CCCC/C=C/C(C)C)ccc1O [CAPSAICIN] = 600

---

Target: Lysine-specific histone demethylase 1A (Homo sapiens)
Experiment: Inhibition of LSD1 (unknown origin) by fluorescence based microplate reader analysis
RECORDED METRIC: pIC50
Please keep in mind that pIC50 is minus log10 of the molar concentration; only the number is needed.

pIC50 reported for this molecule `COc1c(O[C@H]2O[C@@H](C(=O)O)[C@H](O)[C@@H](O)[C@@H]2O)cc(O)c2c(=O)cc(-c3ccccc3)oc12` : 5.53
